Ref: PubChem BioAssay AID2060507

tested on: 519858-162-T-J1-PDC complex spheroid viability; test: Anticancer human tumor 519858-162-T-J1-PDC patient-derived colon adenocarcinoma cell line growth inhibition [GQUAD]; settings: second compound 3.16 µM; first compound 0.1 µM; hits give low values
Labelling field: enter MET if recorded viability, T/C is less than 80%. Enter NOT MET if it equals or exceeds that cut-off.

Use the examples below as a reference point.
compound	subjectOfTest	class
Nc1ccn(C2OC(CO)C(O)C2(F)F)c(=O)n1 (stereo not given) + Cc1[nH]c2ccc(F)cc2c1-c1nc2c3cccnc3c3ncccc3c2[nH]1	519858-162-T-J1-PDC complex spheroid viability	MET
O=C(c1cc(Cc2n[nH]c(=O)c3ccccc23)ccc1F)N1CCN(C(=O)C2CC2)CC1 + Cc1[nH]c2ccc(F)cc2c1-c1nc2c3cccnc3c3ncccc3c2[nH]1	519858-162-T-J1-PDC complex spheroid viability	MET
CC(=O)O[C@H]1C(=O)[C@@]2(C)[C@H]([C@H](OC(=O)c3ccccc3)[C@]3(O)C[C@H](OC(=O)[C@H](O)[C@@H](NC(=O)c4ccccc4)c4ccccc4)C(C)=C1C3(C)C)[C@]1(OC(C)=O)CO[C@@H]1C[C@@H]2O + Cc1[nH]c2ccc(F)cc2c1-c1nc2c3cccnc3c3ncccc3c2[nH]1	519858-162-T-J1-PDC complex spheroid viability	MET

Please look at the following compound next.
**Query** viability, T/C strictly < 80% for this compound? COc1ccc([C@@H](O)c2cc(-c3ncnc4cc(N5CCOCC5)ccc34)c(F)cc2Cl)nn1 + Cc1[nH]c2ccc(F)cc2c1-c1nc2c3cccnc3c3ncccc3c2[nH]1
**Result** NOT MET

###

tested on: 519858-162-T-J1-PDC complex spheroid viability; assay: Anticancer human tumor 519858-162-T-J1-PDC cell line growth inhibition [GQUAD]; details: second compound 0.0316 µM; first compound 3.16 µM; hits give low values;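 further: spheroids exposed to compounds for 7 days; 100% = DMSO vehicle control viability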
reportedMetric: viability, T/C (%)
Numbers only, in %.

compound	reportedMetric	numericResult
COc1cccc2c1C(=O)c1c(O)c3c(c(O)c1C2=O)CC(O)(C(=O)CO)CC3OC1CC(N)C(O)C(C)O1 (stereo not given) + Cc1cnc(CNC(=O)c2c(=O)c3ccc(N4CCCN(C)CC4)nc3n3c2sc2ccccc23)cn1	viability, T/C	71.5
CC(C)n1c(=O)n(C)c2cnc3cc(F)c(-c4ccc(OCCCN5CCCCC5)nc4)cc3c21 + Cc1[nH]c2ccc(F)cc2c1-c1nc2c3cccnc3c3ncccc3c2[nH]1	viability, T/C	78.2
CC(C)n1c(=O)n(C)c2cnc3cc(F)c(-c4ccc(OCCCN5CCCCC5)nc4)cc3c21 + Cc1cnc(CNC(=O)c2c(=O)c3ccc(N4CCCN(C)CC4)nc3n3c2sc2ccccc23)cn1	viability, T/C	70.2
CC(=O)O[C@H]1C(=O)[C@@]2(C)[C@H]([C@H](OC(=O)c3ccccc3)[C@]3(O)C[C@H](OC(=O)[C@H](O)[C@@H](NC(=O)c4ccccc4)c4ccccc4)C(C)=C1C3(C)C)[C@]1(OC(C)=O)CO[C@@H]1C[C@@H]2O + Cc1[nH]c2ccc(F)cc2c1-c1nc2c3cccnc3c3ncccc3c2[nH]1	viability, T/C	71.2
CCCS(=O)(=O)Nc1ccc(F)c(C(=O)c2c[nH]c3ncc(-c4ccc(Cl)cc4)cc23)c1F + Cc1[nH]c2ccc(F)cc2c1-c1nc2c3cccnc3c3ncccc3c2[nH]1	viability, T/C	135
COc1ccc([C@@H](O)c2cc(-c3ncnc4cc(N5CCOCC5)ccc34)c(F)cc2Cl)nn1 + Cc1cnc(CNC(=O)c2c(=O)c3ccc(N4CCCN(C)CC4)nc3n3c2sc2ccccc23)cn1	viability, T/C	48.9

Could you report viability, T/C for every entry in the following list?
1. O=C(c1cc(Cc2n[nH]c(=O)c3ccccc23)ccc1F)N1CCN(C(=O)C2CC2)CC1 + Cc1[nH]c2ccc(F)cc2c1-c1nc2c3cccnc3c3ncccc3c2[nH]1
2. C=CC(=O)N1CCN(c2nc(=O)n(-c3c(C)ccnc3C(C)C)c3nc(-c4c(O)cccc4F)c(F)cc23)C(C)C1 (stereo not given) + CN(C)c1ccc(Nc2c3ccc(NC(=O)CCN4CCCC4)cc3nc3cc(NC(=O)CCN4CCCC4)ccc23)cc1

**Result**
[68, 94]

Okay, here is my list. What is viability, T/C for each of these?
1. COc1cc(C2c3cc4c(cc3C(OC3OC5COC(C)OC5C(O)C3O)C3COC(=O)C23)OCO4)cc(OC)c1O (stereo not given) + Cc1[nH]c2ccc(F)cc2c1-c1nc2c3cccnc3c3ncccc3c2[nH]1
2. O=C(c1cc(Cc2n[nH]c(=O)c3ccccc23)ccc1F)N1CCN(C(=O)C2CC2)CC1 + Cc1cnc(CNC(=O)c2c(=O)c3ccc(N4CCCN(C)CC4)nc3n3c2sc2ccccc23)cn1

**Result**
98.2
64.2

###

tested on: 519858-162-T-J1-PDC complex spheroid viability; test: Anticancer human tumor 519858-162-T-J1-PDC cell line growth inhibition [GQUAD]; conditions: second compound 0.316 µM; first compound 0.0316 µM; hits give low values;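 further: spheroids exposed to compounds for 7 days; 100% = DMSO vehicle control viability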
Provide the reported viability, T/C of each item.
One number for each entry, in %.

Would you please look over these solved cases?
compound	viability, T/C / %
O=c1[nH]cc(F)c(=O)[nH]1 + Cc1[nH]c2ccc(F)cc2c1-c1nc2c3cccnc3c3ncccc3c2[nH]1	86
CC(=O)O[C@H]1C(=O)[C@@]2(C)[C@H]([C@H](OC(=O)c3ccccc3)[C@]3(O)C[C@H](OC(=O)[C@H](O)[C@@H](NC(=O)c4ccccc4)c4ccccc4)C(C)=C1C3(C)C)[C@]1(OC(C)=O)CO[C@@H]1C[C@@H]2O + CN(C)c1ccc(Nc2c3ccc(NC(=O)CCN4CCCC4)cc3nc3cc(NC(=O)CCN4CCCC4)ccc23)cc1	89.7
CC(=O)O[C@H]1C(=O)[C@@]2(C)[C@H]([C@H](OC(=O)c3ccccc3)[C@]3(O)C[C@H](OC(=O)[C@H](O)[C@@H](NC(=O)c4ccccc4)c4ccccc4)C(C)=C1C3(C)C)[C@]1(OC(C)=O)CO[C@@H]1C[C@@H]2O + Cc1cnc(CNC(=O)c2c(=O)c3ccc(N4CCCN(C)CC4)nc3n3c2sc2ccccc23)cn1	65.2

# batch: return viability, T/C for each of the 4 compounds below
1. C#Cc1c(F)ccc2cc(O)cc(-c3ncc4c(N5CC6CCC(C5)N6)nc(OCC56CCCN5CC(F)C6)nc4c3F)c12 (centres undefined) + CN(C)c1ccc(Nc2c3ccc(NC(=O)CCN4CCCC4)cc3nc3cc(NC(=O)CCN4CCCC4)ccc23)cc1
2. COc1cc(C2c3cc4c(cc3C(OC3OC5COC(C)OC5C(O)C3O)C3COC(=O)C23)OCO4)cc(OC)c1O (centres undefined) + Cc1cnc(CNC(=O)c2c(=O)c3ccc(N4CCCN(C)CC4)nc3n3c2sc2ccccc23)cn1
3. CC[C@@]1(O)C(=O)OCc2c1cc1n(c2=O)Cc2cc3c(CN(C)C)c(O)ccc3nc2-1 + Cc1[nH]c2ccc(F)cc2c1-c1nc2c3cccnc3c3ncccc3c2[nH]1
4. CCCS(=O)(=O)Nc1ccc(F)c(C(=O)c2c[nH]c3ncc(-c4ccc(Cl)cc4)cc23)c1F + Cc1[nH]c2ccc(F)cc2c1-c1nc2c3cccnc3c3ncccc3c2[nH]1

**Result**
134
59
93.8
101

Hi, could you look up viability, T/C for each item in my list?
1. COc1cccc2c1C(=O)c1c(O)c3c(c(O)c1C2=O)CC(O)(C(=O)CO)CC3OC1CC(N)C(O)C(C)O1 (centres undefined) + Cc1cnc(CNC(=O)c2c(=O)c3ccc(N4CCCN(C)CC4)nc3n3c2sc2ccccc23)cn1
2. O=C(c1cc(Cc2n[nH]c(=O)c3ccccc23)ccc1F)N1CCN(C(=O)C2CC2)CC1 + Cc1[nH]c2ccc(F)cc2c1-c1nc2c3cccnc3c3ncccc3c2[nH]1

**Result**
1: 89.9; 2: 105

###

test system: 519858-162-T-J1-PDC complex spheroid viability; test: Anticancer human tumor 519858-162-T-J1-PDC cell line growth inhibition [GQUAD]; conditions: second compound 0.316 µM; first compound 0.00316 µM; hits give low values;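 further: spheroids exposed to compounds for 7 days; 100% = DMSO vehicle control viability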
reportedMetric: viability, T/C (%)
Numbers only, in %.

# annotated cases, reported viability, T/C shown
compound	subjectOfTest	viability, T/C, %
CC[C@@]1(O)C(=O)OCc2c1cc1n(c2=O)Cc2cc3c(CN(C)C)c(O)ccc3nc2-1 + Cc1[nH]c2ccc(F)cc2c1-c1nc2c3cccnc3c3ncccc3c2[nH]1	519858-162-T-J1-PDC complex spheroid viability	97.1
CCc1c2c(nc3ccc(O)cc13)-c1cc3c(c(=O)n1C2)COC(=O)[C@]3(O)CC + Cc1cnc(CNC(=O)c2c(=O)c3ccc(N4CCCN(C)CC4)nc3n3c2sc2ccccc23)cn1	519858-162-T-J1-PDC complex spheroid viability	94.8
CCc1c2c(nc3ccc(O)cc13)-c1cc3c(c(=O)n1C2)COC(=O)[C@]3(O)CC + Cc1[nH]c2ccc(F)cc2c1-c1nc2c3cccnc3c3ncccc3c2[nH]1	519858-162-T-J1-PDC complex spheroid viability	105
Cn1ncnc1[C@H]1c2n[nH]c(=O)c3cc(F)cc(c23)N[C@@H]1c1ccc(F)cc1 + CN(C)c1ccc(Nc2c3ccc(NC(=O)CCN4CCCC4)cc3nc3cc(NC(=O)CCN4CCCC4)ccc23)cc1	519858-162-T-J1-PDC complex spheroid viability	139
Cc1[nH]c2ccccc2c1CCNCc1ccc(/C=C/C(=O)NO)cc1 + Cc1[nH]c2ccc(F)cc2c1-c1nc2c3cccnc3c3ncccc3c2[nH]1	519858-162-T-J1-PDC complex spheroid viability	67.8

Hi! Can you tell me viability, T/C for each of these compounds?
1. CC[C@@]1(O)C(=O)OCc2c1cc1n(c2=O)Cc2cc3c(CN(C)C)c(O)ccc3nc2-1 + Cc1cnc(CNC(=O)c2c(=O)c3ccc(N4CCCN(C)CC4)nc3n3c2sc2ccccc23)cn1
2. Cn1ncnc1[C@H]1c2n[nH]c(=O)c3cc(F)cc(c23)N[C@@H]1c1ccc(F)cc1 + Cc1cnc(CNC(=O)c2c(=O)c3ccc(N4CCCN(C)CC4)nc3n3c2sc2ccccc23)cn1

**Result**
1: 86.8; 2: 81.8
